Each record here notes measured LC retention time.
assay: RP, Waters ACQUITY UPLC BEH C18, 100 × 2.1 mm, 1.7 µm, 0.3 mL/min, estimated dead time 0.73 min; A: water + 0.1% formic acid, pH 3; B: methanol + 0.1% formic acid, pH 3; gradient (min/%B) 0/10 14/90 16/90 18/10; conditions: stereoisomer not certain
// return numeric value only (unit: min, not printed)

Solved cases below.
COMPOUND	PROPERTY	VAL
COC(=O)C1C2CCC(CC1OC(=O)c1ccccc1)N2 (stereo not drawn) [Norcocaine]	LC retention time	6.29
CCCCCCCCSC(=O)Oc1cc(Cl)nnc1-c1ccccc1 [Pyridate]	LC retention time	14.3
CC(C)(C)C(O)(CCc1ccc(Cl)cc1)Cn1cncn1 (stereo not drawn) [Tebuconazole]	LC retention time	11.8
CC(C)OC(=O)C(C)N(C(=O)c1ccccc1)c1ccc(F)c(Cl)c1 (stereo not drawn) [Flamprop-isopropyl]	LC retention time	11.7

Quickly give me recorded LC retention time for CON=C1CC2(CC3CC(CC=C(C)CC(C)C=CC=C4COC5C(O)C(C)=CC(C(=O)O3)C45O)O2)OC(C(C)=CC(C)C)C1C (stereo not drawn) [Moxidectin]
15.8

Answer with the recorded LC retention time of CCC1OC(=O)CC(O)C(C)C(OC2OC(C)C(O)C(N(C)C)C2O)C(CCN2CC(C)CC(C)C2)CC(C)C(=O)C=CC(C)=CC1COC1OC(C)C(O)C(OC)C1OC (stereo not drawn) [Tilmicosin] only.
8.78

Specify LC retention time for CN(C)c1nc(=O)n(C2CCCCC2)c(=O)n1C [Hexazinone] and stop.
7.56

Look up LC retention time of COCC(=O)N(c1c(C)cccc1C)N1CCOC1=O [Oxadixyl] and report it.
6.71
